Below, each entry is listed alongside its reported C. albicans IC50.
Test system: C. albicans ATCC90028
Test: in vitro antifungal activity
Assay type: cell-based, Candida albicans

MOLECULE	C. albicans IC50, µg/mL
CCCCCCOc1c(OC)cc(NC(C)CCCNC(=O)C2CCCN2)c2nc(C(C)(C)C)ccc12 (stereo not shown) [compound 103]	11.54
CCCCCCCCOc1c(OC)cc(NC(C)CCCNC(=O)C(N)CCCN)c2nc(C(C)(C)C)ccc12 (stereo not shown) [compound 118]	19.95

---

Each entry below carries its recorded IC50.
Test system: C. albicans ATCC90028
Test: in vitro antifungal activity
Type: cell-based, Candida albicans
Settings: Candida albicans, ATCC90028, read-out: C. albicans IC50
OUTCOME MEASURE: IC50

COMPOUND	OUTCOME MEASURE	DATA VALUE
CCCCCCCOc1c(OC)cc(NC(C)CCCNC(=O)C(N)CCCNC(=N)N)c2nc(C(C)(C)C)ccc12 (stereo not shown) [compound 111]	IC50	> 20 µg/mL
CCCCCOc1c(OC)cc(NC(C)CCCNC(=O)C(N)CCCNC(=N)N)c2nc(C(C)(C)C)ccc12 (stereo not shown) [compound 94]	IC50	18.6 µg/mL
CCCCCOc1c(OC)cc(NC(C)CCCNC(=O)C(N)Cc2ccccc2)c2nc(C(C)(C)C)ccc12 (stereo not shown) [compound 97]	IC50	> 20 µg/mL
CCCCCCCOc1c(OC)cc(NC(C)CCCNC(=O)C(N)Cc2cc3ccccc3[nH]2)c2nc(C(C)(C)C)ccc12 (stereo not shown) [compound 115]	IC50	> 20 µg/mL

---

Readings of MFC for the listed molecules
Tested on: C. albicans ATCC90028
Assay: in vitro antifungal activity
Format: cell-based, Candida albicans
Conditions: Candida albicans, ATCC90028, read-out: C. albicans MFC

MOLECULE	TEST TARGET	MFC
CCCCCOc1c(OC)cc(NC(C)CCCNC(=O)C(N)CC(C)C)c2nc(C(C)(C)C)ccc12 (stereo not drawn)	C. albicans ATCC90028	> 20 µg/mL
CCCCCOc1c(OC)cc(NC(C)CCCNC(=O)C(N)Cc2ccccc2)c2nc(C(C)(C)C)ccc12 (stereo not drawn)	C. albicans ATCC90028	> 20 µg/mL
C[C@@H]1[C@H](O)[C@@H](C)/C=C/C=C/C=C/C=C/C=C/C=C/C=C/[C@H](O[C@@H]2O[C@H](C)[C@@H](O)[C@H](N)[C@@H]2O)C[C@@H]2O[C@](O)(C[C@@H](O)C[C@@H](O)[C@H](O)CC[C@@H](O)C[C@@H](O)CC(=O)O[C@H]1C)C[C@H](O)[C@H]2C(=O)O [amphotericin B (AMP), amphotericin B, reference compound]	C. albicans ATCC90028	1.25 µg/mL
CCCCCCOc1c(OC)cc(NC(C)CCCNC(=O)C(N)Cc2cnc[nH]2)c2nc(C(C)(C)C)ccc12 (stereo not drawn)	C. albicans ATCC90028	> 20 µg/mL
CCCCOc1c(OC)cc(NC(C)CCCNC(=O)C(N)CCCCN)c2nc(C(C)(C)C)ccc12 (stereo not drawn)	C. albicans ATCC90028	> 20 µg/mL
CCCCCCCCOc1c(OC)cc(NC(C)CCCN)c2nc(C(C)(C)C)ccc12 (stereo not drawn)	C. albicans ATCC90028	10 µg/mL
